// data source = paper PMC8147781

Below, each entry is listed with its recorded Cytotoxicity effect (µM) Epithelial kidney NRK52E.
test system: NRK-52E, epithelial kidney cell line; assay: Cytotoxicity assay (PrestoBlue), NRK52E; conditions: CC50, 72 h

Answered examples (5):
O=C(C1=C(O)C(=O)N(CCc2c[nH]c3ccccc23)C1c1ccc(Cl)cc1)c1ccc(Br)cc1 (stereo not shown) :: > 100 µM
O=C(C1=C(O)C(=O)N(Cc2cc3ccccc3[nH]2)C1c1ccc(Cl)cc1)c1ccc(Br)cc1 (stereo not shown) :: > 100 µM
O=C(C1=C(O)C(=O)N(Cc2nc3ccccc3[nH]2)C1c1ccc(Cl)cc1)c1ccc(Br)cc1 (stereo not shown) :: > 100 µM
O=C(C1=C(O)C(=O)N(Cc2c[nH]c3ccccc23)C1c1ccc(Cl)cc1)c1ccc(Br)cc1 (stereo not shown) :: > 100 µM
O=C(C1=C(O)C(=O)N(Cc2cscn2)C1c1ccc(Cl)cc1)c1ccc(Br)cc1 (stereo not shown) :: > 100 µM

For record O=C(C1=C(O)C(=O)N(Cc2cccc(F)c2)C1c1ccc(Cl)cc1)c1ccc(Br)cc1 (stereo not shown) the listed Cytotoxicity effect (µM) Epithelial kidney NRK52E is > 100 µM

Lookup result for O=C(C1=C(O)C(=O)N(Cc2ccco2)C1c1ccc(Cl)cc1)c1ccc(Br)cc1 (stereo not shown) ; measured Cytotoxicity effect (µM) Epithelial kidney NRK52E: > 100 µM

Field Cytotoxicity effect (µM) Epithelial kidney NRK52E (entry CCNC1=C(C(=O)c2ccc(Br)cc2)C(c2ccc(Cl)cc2)N(Cc2c[nH]c3ccccc23)C1=O (stereo not shown) ) reads 23 ± 11 µM

Value of Cytotoxicity effect (µM) Epithelial kidney NRK52E reported for the compound O=C(C1=C(N2CCOCC2)C(=O)N(Cc2cccc(F)c2)C1c1ccc(Cl)cc1)c1ccc(Br)cc1 (stereo not shown) is 52 ± 3 µM

Per the record, O=C(C1=C(O)C(=O)N(Cc2cc3cnccc3[nH]2)C1c1ccc(Cl)cc1)c1ccc(Br)cc1 (stereo not shown) has Cytotoxicity effect (µM) Epithelial kidney NRK52E of 58 ± 3 µM

---

Readings of MIC (µM) against P. aeruginosa K28926 for the listed molecules
system: P. aeruginosa K2896 ΔmexBΔmexXYΔmexCD-oprJ; experiment: MIC broth microdilution, P. aeruginosa K2896 efflux mutant; format: cell-based, Pseudomonas aeruginosa; conditions: ΔmexB; ΔmexX, ΔmexCD-oprJ, with 4 µg/mL PMBN

Reference set, count: 3
CCNC1=C(C(=O)c2ccc(Br)cc2)C(c2ccc(Cl)cc2)N(Cc2c[nH]c3ccccc23)C1=O (stereo not drawn) [Compound 45] :: >100 µM
O=C(C1=C(O)C(=O)N(Cc2nc3ccccc3[nH]2)C1c1ccc(Cl)cc1)c1ccc(Br)cc1 (stereo not drawn) [Compound 38] :: >100 µM
O=C1NC(c2ccc(Cl)cc2)C(C(=O)c2ccc(Br)cc2)=C1O (stereo not drawn) [Compound 32] :: >100 µM

With P. aeruginosa K2896 ΔmexBΔmexXYΔmexCD-oprJ as the test system, C[C@H]1[C@H](NC(=O)/C(=N\OC(C)(C)C(=O)O)c2csc(N)n2)C(=O)N1S(=O)(=O)O [Aztreonam, aztreonam, reference compound] showed MIC (µM) against P. aeruginosa K28926 of 0.29 µM

Given the molecule O=C(C1=C(N2CCOCC2)C(=O)N(Cc2cccc(F)c2)C1c1ccc(Cl)cc1)c1ccc(Br)cc1 (stereo not drawn) [Compound 44] and test system P. aeruginosa K2896 ΔmexBΔmexXYΔmexCD-oprJ, the measured MIC (µM) against P. aeruginosa K28926 is >100 µM

Recorded MIC (µM) against P. aeruginosa K28926 for O=C(C1=C(O)C(=O)N(Cc2cccc(F)c2)C1c1ccc(Cl)cc1)c1ccc(Br)cc1 (stereo not drawn) [Compound 1] on P. aeruginosa K2896 ΔmexBΔmexXYΔmexCD-oprJ was 12.5 µM
